Experimental Readout: melting point

[[record]]
compound = "CCOC(=O)c1c(SCC(=O)COC(C)=O)nc2c(F)c(F)c(F)cc2c1O"
result = "175 to 180 °C"

[[record]]
compound = "COc1cc(/C=C/CO)ccc1OCc1csc(-c2ccccc2)n1"
result = "71 to 72 °C"

[[record]]
compound = "COc1ccc(C(=O)Cl)cc1C12CC3CC(CC(C3)C1)C2"
result = "153 to 154 °C"

[[record]]
compound = "CCCCCCCCCCCCCCCCCCOP(=O)(Cc1cc(Cl)c(O)c(C(C)(C)C)c1)OCCCCCCCCCCCCCCCCCC"
result = "55 °C"

[[record]]
compound = "Cc1ccc(CCC(=O)c2ccc(N3CCN(c4ccncc4)CC3)cc2)cc1"
result = "130 to 132 °C"

[[record]]
compound = "O=c1[nH]nc2ccc(OCCCN3CCC(OC(c4ccccc4)c4ccccc4)CC3)nn12"
result = "209 to 211 °C"

[[record]]
compound = "CC(=Nc1ccc(NC(=O)[C@@H](N)CC(C)C)cc1)N(C)C"
result = "106 to 107 °C"

[[record]]
compound = "O=c1[nH]c2ccc3c(c2[nH]c1=O)CCCN3"
result = "> 285 °C"

[[record]]
compound = "CCOC(=O)C(=O)Nc1ccc(NS(C)(=O)=O)cc1"
result = "136 to 139 °C"

[[record]]
compound = "FC(F)(F)Oc1ccc(-n2cnc(-c3ccc(/C=N/NC(=S)Nc4ccccc4C4CCCC4)cc3)n2)cc1"
result = "213 to 216 °C"

[[record]]
compound = "CCCCCCCCCCCCCCCCN(CCCC)CCCCCCO"
result = "58 to 59 °C"

[[record]]
compound = "Nc1noc(-c2nc(Cl)c(N)nc2N)n1"
result = "278 °C"

[[record]]
compound = "CCOC(=O)c1ncc2[nH]c3ccc(N)cc3c2n1"
result = "256 to 258 °C"

[[record]]
compound = "COc1cc2c(cc1OC)CCCC(C(=O)N1CCN(Cc3cc(OC)c(OC)c(OC)c3)CC1COC(C)=O)=C2 (stereo unspecified)"
result = "135 to 139 °C"

[[record]]
compound = "CC(C)N(CCN1C(=O)/C(=N/NC(N)=O)c2ccccc21)Cc1ccccc1"
result = "193 to 194 °C"

[[record]]
compound = "OC(CCN1CCC(c2ccc(Cl)cc2)CC1)c1ccc(Cl)cc1 (stereo unspecified)"
result = "152 to 154 °C"

[[record]]
compound = "O=C1CCC(c2ccc(C(F)(F)F)cc2)=NN1"
result = "177 to 178 °C"

[[record]]
compound = "O=C(NCc1ccc(Cl)cc1)c1cnc2ccc(I)cn2c1=O"
result = "191 to 194 °C"

[[record]]
compound = "CCCCn1nc(C)c(CC(=O)O)c1C"
result = "97 to 98 °C"

[[record]]
compound = "Cn1c(C(N)=O)c(-c2ccc(NC(=O)Nc3cc(C(F)(F)F)ccc3F)cc2)c2ccccc21"
result = "> 260 °C"

[[record]]
compound = "O=C(c1ccc(-c2ccccc2)cc1)C(Br)CC(=O)N1CCC[C@H]1C(=O)O (stereo partly specified)"
result = "131 to 133 °C"

[[record]]
compound = "COCCNc1c(S(=O)(=O)C(F)(F)F)c(C#N)nn1-c1c(Cl)cc(C(F)(F)F)cc1Cl"
result = "164 °C"

[[record]]
compound = "O=C(CCOc1ccc(Cl)cc1)NCCCn1ccnc1"
result = "114 to 116 °C"

[[record]]
compound = "CCCCCCCCCCc1ccc(CNc2ccc(C(=O)O)cc2)cc1"
result = "135 to 136 °C"

[[record]]
compound = "N#Cc1cccc2c1C(=O)OC2O (stereo unspecified)"
result = "138 to 140 °C"

[[record]]
compound = "Nc1ccccc1CN(N)c1ccc(Cl)cc1"
result = "83 to 87 °C"

[[record]]
compound = "C=Cn1cc(C(=O)O)c(=O)c2cc(F)c(N3CCN(C(=O)OCC)CC3)nc21"
result = "246 to 248 °C"

[[record]]
compound = "CC(=O)Nc1ncc(Sc2ccc(O)cc2)s1"
result = "265 to 267 °C"

[[record]]
compound = "CC(C)CN(CC(O)(Cn1cncn1)c1ccc(Cl)cc1Cl)S(C)(=O)=O (stereo unspecified)"
result = "128 to 129 °C"

[[record]]
compound = "O=C(NCc1ccc(Cl)cc1)c1cn2c3c(cc(CN4CCOCC4)cc3c1=O)OCCC2"
result = "195 to 197 °C"

[[record]]
compound = "COC(=O)C12COc3cc(C(F)(F)F)ccc3C1=NN(C(=O)Nc1ccc(C(F)(F)F)cn1)C2 (stereo unspecified)"
result = "194 to 195 °C"

[[record]]
compound = "O=C(c1ccccc1)c1ccc(-c2nc(COc3ccc(CCCCn4ccnc4)cc3)co2)cc1"
result = "91 to 92 °C"

[[record]]
compound = "CC(C)NCC1(O)CCN(c2c(F)cc3c(=O)c(C(=O)O)cn(C4CC4)c3c2F)C1 (stereo unspecified)"
result = "213 to 214 °C"

[[record]]
compound = "NS(=O)(=O)c1ccccc1S(N)(=O)=O"
result = "250 °C"

[[record]]
compound = "CC(C)(C)OC(=O)Nc1ccc(-c2ccccc2)cc1NC(=O)CC(=O)c1sccc1Cl"
result = "165 °C"

[[record]]
compound = "COc1ccc(C2=NN(C3CCN(S(=O)(=O)c4cccc(C#N)c4)CC3)C(=O)C(C)(C)C2)cc1OC"
result = "158 to 160 °C"

[[record]]
compound = "CCCc1c(OCCCOc2ccc(C#N)cc2Br)ccc(C(C)=O)c1O"
result = "88 to 89 °C"

[[record]]
compound = "N=C(NO)c1ccc(-c2ccc(-c3ccc(C(=N)NO)o3)cc2)o1"
result = "> 300 °C"

[[record]]
compound = "Cn1c2c(c3ccccc31)CCOC2(C)C"
result = "96 to 97 °C"

[[record]]
compound = "N=C(Nc1ccc(OCCNCc2ccccc2)cc1F)c1cccs1"
result = "105 to 107 °C"

[[record]]
compound = "CCCC1NC(C(=O)O)Cc2c1[nH]c1ccccc21 (stereo unspecified)"
result = "210 to 211 °C"

